Quick list: Raw Signal per entry.
# system_tested: Human IP6K1 (Homo sapiens, UniProt Q92551)
# Construct: GST (N, cleaved yes); made in house; host or cells: C43 E. coli, pGEX-6P-2
# Sequence (Q92551 whole entry): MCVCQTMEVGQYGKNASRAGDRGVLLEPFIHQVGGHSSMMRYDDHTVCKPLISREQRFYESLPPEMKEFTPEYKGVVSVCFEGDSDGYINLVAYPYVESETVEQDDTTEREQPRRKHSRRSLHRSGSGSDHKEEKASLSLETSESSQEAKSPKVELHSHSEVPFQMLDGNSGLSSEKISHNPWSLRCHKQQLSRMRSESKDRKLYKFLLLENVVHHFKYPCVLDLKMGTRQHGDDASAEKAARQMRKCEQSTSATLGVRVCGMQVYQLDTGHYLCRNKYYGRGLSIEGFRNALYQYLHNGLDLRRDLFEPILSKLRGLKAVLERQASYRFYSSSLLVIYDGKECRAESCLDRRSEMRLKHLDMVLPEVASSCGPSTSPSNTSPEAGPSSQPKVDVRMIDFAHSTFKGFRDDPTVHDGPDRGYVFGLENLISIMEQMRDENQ
# method_notes: IP6K1 high-throughput screen of the Sigma LOPAC (ADP-Glo Max, single point);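 further: final compound concentration 10µM in 5% DMSO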
# Type: biochemical
Where a name gives a salt, the structure may show the parent alone.
// no unit string in output, number only

A selection of reference data follows.
compound	value_measured
CNCC(O)c1ccc(O)c(O)c1.Cl (racemic) [(±)-Epinephrine hydrochloride]	49297
CC(C)c1cccc(C(C)C)c1O	48098
Cc1cccc(C)c1N=C1NCCCS1 [Xylazine hydrochloride]	56727

Next up:
What value of Raw Signal on Human IP6K1 (Homo sapiens, UniProt Q92551) does C[C@H](CCC(=O)NCCS(=O)(=O)O)[C@H]1CC[C@H]2[C@@H]3[C@H](O)C[C@@H]4C[C@H](O)CC[C@]4(C)[C@H]3C[C@H](O)[C@]12C [Sodium Taurocholate] have?
58351

###

# system_tested: Human IP6K1 (Homo sapiens)
# Construct: GST (N, cleaved yes); made in house; host or cells: C43 E. coli, pGEX-6P-2
# method_notes: IP6K1 high-throughput screen of the Sigma LOPAC (ADP-Glo Max, single point);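 further: final compound concentration 10µM in 5% DMSO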
# Format: biochemical
# conditions_used: Sigma LOPAC single-point screen; Z-score from plate average and StDev
Decision: Z-score beneath 0.6 gives Satisfied; Z-score meeting or exceeding 0.6 gives Not satisfied.

Completed entries (count: 2):
molecule	system_tested	class_name
COc1ccccc1N1CCN(CCN(C(=O)c2ccc(I)cc2)c2ccccn2)CC1.Cl [p-MPPI hydrochloride]	Human IP6K1 (Homo sapiens)	Not satisfied
CC(=O)N[C@@H](CS)C(=O)O	Human IP6K1 (Homo sapiens)	Not satisfied

Consider Oc1ccc(C2CNCCc3c2cc(O)c(O)c3Cl)cc1 (stereo not shown) [Fenoldopam bromide] . Does its Z-score lie strictly below 0.6?
Not satisfied

Consider CN[C@H](CC(C)C)C(=O)N[C@H]1C(=O)N[C@@H](CC(N)=O)C(=O)N[C@H]2C(=O)N[C@H]3C(=O)N[C@H](C(=O)N[C@H](C(=O)O)c4cc(O)cc(O)c4-c4cc3ccc4O)[C@H](O)c3ccc(c(Cl)c3)Oc3cc2cc(c3O[C@@H]2O[C@H](CO)[C@@H](O)[C@H](O)[C@H]2O[C@H]2C[C@](C)(N)[C@H](O)[C@H](C)O2)Oc2ccc(cc2Cl)[C@H]1O.Cl . Does its Z-score lie strictly below 0.6?
Not satisfied

###

# system_tested: Human IP6K1 (Homo sapiens)
# Construct: GST (N, cleaved yes); made in house; host or cells: C43 E. coli, pGEX-6P-2
# method_notes: IP6K1 high-throughput screen of the Sigma LOPAC (ADP-Glo Max, single point);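 further: final compound concentration 10µM in 5% DMSO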
# Assay type: biochemical
# conditions_used: Sigma LOPAC single-point screen; Z-score from plate average and StDev
Counter-ions that a name gives are not always drawn.
measurement_type: Z-score

A selection of reference data follows.
compound	value_measured
COc1ccccc1CNCCCCCCNCCCCCCCCNCCCCCCNCc1ccccc1OC.Cl.Cl.Cl.Cl [Methoctramine tetrahydrochloride]	0.4193
COc1cc2c(cc1O)CC[C@@H]1[C@@H]2CC[C@]2(C)[C@@H](O)CC[C@@H]12	0.7102

Requested read-out: Z-score. Entry: CN/C(=N/CCSCc1nc[nH]c1C)NC#N
0.8276

Requested read-out: Z-score. Entry: C[C@H]1CCC/C=C/[C@@H]2C[C@H](O)C[C@H]2[C@H](O)/C=C/C(=O)O1
0.3549

Requested read-out: Z-score. Entry: CC(C)COCC(CN(Cc1ccccc1)c1ccccc1)N1CCCC1 (centres unmarked) [Bepridil hydrochloride]
0.3711

Requested read-out: Z-score. Entry: CC(=O)O[C@H]1C(=O)[C@@]2(C)[C@H]([C@H](OC(=O)c3ccccc3)[C@]3(O)C[C@H](OC(=O)[C@H](O)[C@@H](NC(=O)c4ccccc4)c4ccccc4)C(C)=C1C3(C)C)[C@]1(OC(C)=O)CO[C@@H]1C[C@@H]2O
0.4797

Requested read-out: Z-score. Entry: N[C@H](CCC(=O)NCS(=O)(=O)O)C(=O)O
0.6405
